Biological target: Neuronal acetylcholine receptor; alpha4/beta2 (Rattus norvegicus, UniProt P09483+P12390)
Sequence (P09483 whole entry): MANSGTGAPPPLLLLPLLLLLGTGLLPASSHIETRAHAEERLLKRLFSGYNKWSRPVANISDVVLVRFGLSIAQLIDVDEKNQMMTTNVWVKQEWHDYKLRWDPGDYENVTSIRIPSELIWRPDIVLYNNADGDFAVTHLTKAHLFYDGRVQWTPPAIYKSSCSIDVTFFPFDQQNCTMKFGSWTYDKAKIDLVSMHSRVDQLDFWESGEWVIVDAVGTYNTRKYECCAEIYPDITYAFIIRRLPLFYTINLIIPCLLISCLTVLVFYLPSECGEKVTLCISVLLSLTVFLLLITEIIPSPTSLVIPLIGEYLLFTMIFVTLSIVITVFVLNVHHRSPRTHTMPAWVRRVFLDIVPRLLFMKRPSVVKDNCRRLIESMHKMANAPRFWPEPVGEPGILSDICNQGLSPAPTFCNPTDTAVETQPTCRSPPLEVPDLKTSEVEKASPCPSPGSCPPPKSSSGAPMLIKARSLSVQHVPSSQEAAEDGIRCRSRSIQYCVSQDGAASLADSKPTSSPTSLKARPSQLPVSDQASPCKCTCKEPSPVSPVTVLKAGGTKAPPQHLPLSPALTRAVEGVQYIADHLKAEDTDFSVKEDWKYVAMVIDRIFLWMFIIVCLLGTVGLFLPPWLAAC
Sequence (P12390 whole entry): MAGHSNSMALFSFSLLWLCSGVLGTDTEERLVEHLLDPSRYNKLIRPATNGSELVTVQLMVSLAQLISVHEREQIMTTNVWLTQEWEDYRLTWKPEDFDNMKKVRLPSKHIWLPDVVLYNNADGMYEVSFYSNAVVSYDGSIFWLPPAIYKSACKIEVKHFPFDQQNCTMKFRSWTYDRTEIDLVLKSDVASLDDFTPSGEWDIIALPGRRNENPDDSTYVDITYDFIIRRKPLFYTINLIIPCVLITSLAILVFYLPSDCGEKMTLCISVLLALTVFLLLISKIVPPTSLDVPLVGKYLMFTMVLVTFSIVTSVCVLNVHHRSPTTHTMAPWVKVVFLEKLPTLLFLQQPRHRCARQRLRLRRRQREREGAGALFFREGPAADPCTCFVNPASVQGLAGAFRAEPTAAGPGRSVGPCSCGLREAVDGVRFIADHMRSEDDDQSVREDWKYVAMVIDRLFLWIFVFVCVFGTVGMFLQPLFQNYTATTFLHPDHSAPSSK
Assay: Displacement of [3H]cytisine from alpha-4-beta-2 nAChR in rat brain membrane
Assay type: cell membranes
experimental.readout: Ki (nM)
Give bare numbers, in nM.

compound | reading.unit | Ki
CN1CCC[C@@H]1Cc1cc2cccnc2[nH]1 | nM | 2510
Br.c1cnc2[nH]c(C3CCNC3)cc2c1 (stereo not drawn) | nM | 10

Problem: Fill in Ki for record Fc1ccc2cc(C[C@H]3CCCN3)[nH]c2n1
Result: 316

---

Assay: Metabolic stability in human liver
Assay type: ADME, tissue-based
experimental.readout: half-life
Give your result as the value with the unit written after it.

Provide half-life for all items below, preserving their order.
1. Br.c1cnc2[nH]c(C3CCNC3)cc2c1 (configuration not stated)
2. c1cnc2[nH]c(C[C@H]3CCCN3)cc2c1

Result:
["2.23 h", "4.43 h"]

---

Target: Neuronal acetylcholine receptor; alpha4/beta2 (Rattus norvegicus, UniProt P09483+P12390)
Test: Displacement of [3H]L-nicotine from alpha-4-beta-2 nAChR in rat cerebral cortex
Assay type: tissue-based
experimental.readout: Ki (nM)
Give bare numbers, in nM.

Problem: Fill in Ki for record CN[C@@H](C)C/C=C/c1cncc(OC)c1
Result: 11

---

Biological target: Neuronal acetylcholine receptor; alpha4/beta2 (Rattus norvegicus, UniProt P09483+P12390)
Test: Displacement of [3H]cytisine from alpha-4-beta-2 nAChR in rat brain membrane
Format: cell membranes
Can you tell me pKi for the items I'm about to list?
Give bare numbers, as −log10 of the molar value.

As a guide, the following entries are already answered.
compound | experimental.readout | meas.value
Brc1ccc2cc(C[C@H]3CCCN3)[nH]c2n1 | pKi | 6.16
c1cnc2[nH]c(C3CCCNC3)cc2c1 (single isomer, unassigned; (-)) | pKi | 5.70

Provide pKi for all items below, preserving their order.
1. Clc1ccc2cc(C3CCCNC3)[nH]c2n1 (single isomer, unassigned; (+))
2. Clc1ccc2cc(C[C@@H]3CCCN3)[nH]c2n1

Result:
5.46
5.43

Provide pKi for all items below, preserving their order.
1. c1cnc2[nH]c(C3CCNC3)cc2c1 (single isomer, unassigned; (-))
2. Clc1ccc2c(C3CCCNC3)c[nH]c2n1 (configuration not stated)
3. c1cnc2[nH]c(C[C@@H]3CCCN3)cc2c1
4. c1cnc2[nH]c(C3CCNC3)cc2c1 (racemic)

Result:
1: 6.60; 2: 5.53; 3: 5.56; 4: 7.80

Provide pKi for all items below, preserving their order.
1. CN1CCC[C@H]1Cc1cc2cccnc2[nH]1
2. c1cnc2[nH]cc(C3CCCNC3)c2c1 (configuration not stated)
3. Fc1ccc2cc(C[C@@H]3CCCN3)[nH]c2n1
4. Clc1ccc2cc(C[C@H]3CCCN3)[nH]c2n1

Result:
[6.16, 5.53, 5.70, 6.83]

---

Assay: Ratio of drug level in brain to plasma in po dosed rat
Format: ADME, organism-based
experimental.readout: Kp
Answers are plain numbers.

Problem: Fill in Kp for record c1cnc2[nH]c(C[C@H]3CCCN3)cc2c1
Result: 3.7
